Species on record: Rattus norvegicus
Test: DrugMatrix - Regimen: Daily Repeat
Format: toxicity, organism-based, Sprague-Dawley
Set-up: regimen Daily Repeat, gender Male, age 6-8 weeks
Conditions: in vivo, po, 0 mg/kg, 120 h, tissue Plasma, route oral GAVAGE, dose level Control, time 5 day, vehicle 100 % WATER
Property: TOTAL PROTEIN; scope: individual molecules

Check out these entries, answers already filled in.
NC12CC3CC(CC(C3)C1)C2 ... 6.07 G/DL
CN(C)CCC=C1c2ccccc2CCc2ccccc21 ... 6.07 G/DL
CCN(CC)CCOC(=O)C1(C2CCCCC2)CCCCC1 ... 6.83 G/DL
C#Cc1cccc(Nc2ncnc3cc(OCCOC)c(OCCOC)cc23)c1 ... 6.3 G/DL
CCCC(C)C1(CC)C(=O)NC(=O)NC1=O (stereo unspecified) ... 5.82 G/DL

For reference, reported TOTAL PROTEIN for NC(=O)c1cccnc1 [NIACINAMIDE] stands at 6.15 G/DL

All figures here come from ChEMBL document CHEMBL3885881.
